Entries and their measured log10 IC50 follow.
Assayed Target: 5-hydroxytryptamine receptor 1A (Homo sapiens, UniProt P08908)
Sequence (P08908 whole entry): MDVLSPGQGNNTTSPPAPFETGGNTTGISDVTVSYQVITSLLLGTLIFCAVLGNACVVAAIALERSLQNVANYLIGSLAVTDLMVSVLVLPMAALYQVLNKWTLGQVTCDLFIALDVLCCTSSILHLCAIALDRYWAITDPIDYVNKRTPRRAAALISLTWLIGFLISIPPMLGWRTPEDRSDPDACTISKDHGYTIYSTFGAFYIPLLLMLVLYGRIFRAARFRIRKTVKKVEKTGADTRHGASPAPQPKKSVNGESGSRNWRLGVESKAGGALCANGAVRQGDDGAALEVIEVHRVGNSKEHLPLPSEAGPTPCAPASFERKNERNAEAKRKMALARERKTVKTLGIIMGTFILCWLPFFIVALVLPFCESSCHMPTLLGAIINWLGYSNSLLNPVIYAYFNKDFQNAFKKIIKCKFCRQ
Method Notes: serotonin 1A receptor activation, dose response (AID 718)
Conditions: pH 7.4; 23 °C
A difference of one corresponds to tenfold IC50; all values are log10 with IC50 in nM.

Some solved cases for reference:
[
  {
    "Compound": "CCCc1nnc2n1N=C(c1ccc(OC)c(OC)c1)CS2 [SMR000057783]",
    "log10 IC50": 4.60
  },
  {
    "Compound": "COC(=O)/C(=C1/Oc2cc(C)oc(=O)c2S1)C(F)(F)F",
    "log10 IC50": 3.09
  },
  {
    "Compound": "COc1cc2c(cc1OC)C1=C(C#N)CC=C(NS(=O)(=O)c3ccccc3)N1CC2 [SMR000092093]",
    "log10 IC50": 4.60
  }
]

Let's switch to this compound now.
Entry OCC12C=CC(O1)c1c2c(O)n(-c2ccc(-c3ccccc3)cc2)c1O (stereo not given) — recorded log10 IC50 = 4.06

Ref: BindingDB's records for doi:10.7270/Q2S46Q8P
